Cited source: ChEMBL document CHEMBL4808179

- Tested on: Enterococcus faecium
- testMethodNotes: Antibacterial activity against vancomycin resistant Enterococcus faecium Van A HS-0649 assessed as inhibition of bacterial growth
- Type: functional
Recorded MIC values for a group of compounds are listed next.
Kindly answer with a numeric value in mg/L, unit omitted.

Completed entries (count: 2):
compoundString | targetEntity | unitsSymbol | MIC
CN[C@H](CC(C)C)C(=O)N[C@H]1C(=O)N[C@@H](CC(N)=O)C(=O)N[C@H]2C(=O)N[C@H]3C(=O)N[C@H](C(=O)N[C@H](C(=O)NNCc4ccc(-c5ccc(C(F)(F)F)cc5)cc4)c4cc(O)cc(O)c4-c4cc3ccc4O)[C@H](O)c3ccc(c(Cl)c3)Oc3cc2cc(c3O[C@@H]2O[C@H](CO)[C@@H](O)[C@H](O)[C@H]2O[C@H]2C[C@](C)(N)[C@H](O)[C@H](C)O2)Oc2ccc(cc2Cl)[C@H]1O | Enterococcus faecium | mg/L | 8
CN[C@H](CC(C)C)C(=O)N[C@H]1C(=O)N[C@@H](CC(N)=O)C(=O)N[C@H]2C(=O)N[C@H]3C(=O)N[C@H](C(=O)N[C@H](C(=O)N/N=C/c4ccc(-c5ccccc5)cc4)c4cc(O)cc(O)c4-c4cc3ccc4O)[C@H](O)c3ccc(c(Cl)c3)Oc3cc2cc(c3O[C@@H]2O[C@H](CO)[C@@H](O)[C@H](O)[C@H]2O[C@H]2C[C@](C)(N)[C@H](O)[C@H](C)O2)Oc2ccc(cc2Cl)[C@H]1O | Enterococcus faecium | mg/L | 4

Moving on to another compound below.
// field: MIC; key: CN[C@H](CC(C)C)C(=O)N[C@H]1C(=O)N[C@@H](CC(N)=O)C(=O)N[C@H]2C(=O)N[C@H]3C(=O)N[C@H](C(=O)N[C@H](C(=O)NNCc4ccccc4)c4cc(O)cc(O)c4-c4cc3ccc4O)[C@H](O)c3ccc(c(Cl)c3)Oc3cc2cc(c3O[C@@H]2O[C@H](CO)[C@@H](O)[C@H](O)[C@H]2O[C@H]2C[C@](C)(N)[C@H](O)[C@H](C)O2)Oc2ccc(cc2Cl)[C@H]1O ; value = 128
